Target: human 26S proteasome, caspase-like (C-L) activity (Homo sapiens, UniProt P28072)
Sequence (P28072 35-239): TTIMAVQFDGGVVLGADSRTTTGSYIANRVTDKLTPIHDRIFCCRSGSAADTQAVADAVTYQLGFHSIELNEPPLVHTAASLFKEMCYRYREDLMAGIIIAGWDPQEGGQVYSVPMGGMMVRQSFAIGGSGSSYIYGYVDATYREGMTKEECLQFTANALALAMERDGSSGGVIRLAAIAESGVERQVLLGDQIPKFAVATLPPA
Assay: Proteasome-Glo luminogenic assay, C-L substrate
Format: biochemical
VALUE_KIND: pIC50
Give bare numbers, as −log10 of the molar value.

COMPOUND	SYSTEM	MEASUREMENT
C[C@@]12OC(=O)[C@]1([C@@H](O)[C@@H]1C=CCCC1)NC(=O)[C@@H]2CCCl [1a, (−)-salino A]	human 26S proteasome, caspase-like (C-L) activity (Homo sapiens, UniProt P28072)	6.81

Kindly review the next compound as well.
Answer with the recorded pIC50 for the compound listed here: C[C@@]12OC(=O)[C@]1([C@@H](O)[C@@H]1C=CCCC1)NC(=O)[C@@H]2CCCCl [compound 54, (−)-homosalino]
6.73

All values here come from paper PMC5546919.
